test description: A549 NSCLC cell proliferation inhibitors – ATP luminescence, human non-small cell lung line, primary screen (AID 371);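 also: compound exposure lasted 72 h before the ATP read; 0% = untreated cell signal and 100% = no luminescence left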
test settings: at 10 µM
Screen size: about 3,300 compounds; about 280 (8.5%) were called active.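 The calls were made as follows: active = mean growth inhibition over the two runs of 50% or more; inactive = mean growth inhibition under 50%.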 The list comes from a sample in which actives are over-represented; it also holds close analogues and randomly drawn compounds.
Answer with one of the outcomes true (1) (active), false (0) (inactive)

- compound: "CC(C)(C)c1nnc2sc(SCC(=O)c3ccccc3)nn2c1=O"
  label value: "false (0)"
- compound: "CCOC(=O)C1=C(C)NC(=O)NC1c1ccc2c(c1)OCO2 (stereo not drawn)"
  label value: "false (0)"
- compound: "COc1ccccc1C(=O)NCC(=O)n1nc(C)cc1C"
  label value: "false (0)"
- compound: "N/C(=N\\c1nc2ccccc2o1)NC(=O)c1ccccc1NC(=O)c1ccccc1"
  label value: "true (1)"
- compound: "CCC1CCCCN1c1nc(-c2ccncc2)nc2ccccc12 (stereo not drawn)"
  label value: "true (1)"
- compound: "O=C(Nc1ccccc1C(=O)NCCCn1ccnc1)c1ccccc1"
  label value: "false (0)"
- compound: "Cc1cc(SCCC(=O)O)nc2ccccc12"
  label value: "false (0)"
- compound: "CCCCCCn1c(SCCN2CCOCC2)nc2c1c(=O)[nH]c(=O)n2C"
  label value: "false (0)"
- compound: "Cc1cccc(C)c1OCC(=O)Nc1cccc(-c2nnc(-c3ccccc3)o2)c1"
  label value: "true (1)"
- compound: "COc1cccc(-c2nc(N3CCCCC3)c3ccccc3n2)c1O"
  label value: "false (0)"

Req: Kindly provide the recorded test outcome for the following compound: "COCCCNC(=O)c1c(N)n(/N=C/c2cccs2)c2nc3ccccc3nc12"
Resp: false (0)

Req: Kindly provide the recorded test outcome for the following compound: "COCCNc1ncnc2c1cnn2-c1ccc(Cl)cc1"
Resp: false (0)

Req: Kindly provide the recorded test outcome for the following compound: COCCOC(=O)C1=C(C)NC(C)=C(C(=O)OC(C)C)C1c1cccc([N+](=O)[O-])c1 (stereo not drawn)
Resp: false (0)

Req: Kindly provide the recorded test outcome for the following compound: COC(=O)c1ccc(C2/C(=C(\O)c3ccc4c(c3)OCCO4)C(=O)C(=O)N2CCCN(C)C)cc1 (stereo not drawn)
Resp: false (0)

Req: Kindly provide the recorded test outcome for the following compound: "CC1(C)Cc2c(c(-c3ccccc3)nc(N3CCCC3)c2C(N)=O)CO1"
Resp: false (0)

Req: Kindly provide the recorded test outcome for the following compound: "COc1cccc(-c2nc(N3CCC(C)CC3)c3ccccc3n2)c1O"
Resp: true (1)

Req: Kindly provide the recorded test outcome for the following compound: O=C(NC1(C(F)(F)F)C(=O)Nc2c1c(=O)[nH]c(=O)n2-c1ccccc1)c1cccnc1 (stereo not drawn)
Resp: false (0)

Req: Kindly provide the recorded test outcome for the following compound: "CCC(=O)Nc1nc2ccccc2n1Cc1ccccc1C"
Resp: true (1)

Req: Kindly provide the recorded test outcome for the following compound: "CCC(=O)Nc1cccc(-c2nnc(SCC(=O)NCc3ccco3)n2C)c1"
Resp: false (0)

Req: Kindly provide the recorded test outcome for the following compound: "COc1ccc(C(=O)N/C(N)=N/c2nc3ccccc3o2)cc1"
Resp: false (0)

Req: Kindly provide the recorded test outcome for the following compound: COc1ccccc1C1CC(c2ccc(Cl)cc2)Nc2nc(N)nn21 (stereo not drawn)
Resp: false (0)
